Tested Target: PBD1 of PPIP5K1 (Homo sapiens)
Sequence (Q6PFW1 382-917): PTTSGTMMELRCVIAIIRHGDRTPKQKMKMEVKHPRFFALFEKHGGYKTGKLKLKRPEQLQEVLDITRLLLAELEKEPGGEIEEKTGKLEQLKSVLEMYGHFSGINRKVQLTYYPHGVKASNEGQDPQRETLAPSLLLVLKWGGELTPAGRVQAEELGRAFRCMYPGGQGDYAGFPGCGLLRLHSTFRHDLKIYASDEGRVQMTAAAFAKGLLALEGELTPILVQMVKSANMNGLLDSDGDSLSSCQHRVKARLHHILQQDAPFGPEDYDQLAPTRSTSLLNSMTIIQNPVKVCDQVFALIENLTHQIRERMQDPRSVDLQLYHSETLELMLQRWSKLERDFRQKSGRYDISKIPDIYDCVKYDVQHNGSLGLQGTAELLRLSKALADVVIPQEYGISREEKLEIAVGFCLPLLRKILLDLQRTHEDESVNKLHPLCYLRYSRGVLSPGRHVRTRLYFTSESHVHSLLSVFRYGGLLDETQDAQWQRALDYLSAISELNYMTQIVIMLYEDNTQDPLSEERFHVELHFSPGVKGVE
Outcome Measure: IC50 (µM)

>  <Molecule>
O=P(O)(O)O[C@@H]1[C@@H](OP(=O)(O)O)[C@@H](OP(=O)(O)O)[C@@H](OP(=O)(O)OP(=O)(O)O)[C@H](OP(=O)(O)O)[C@H]1OP(=O)(O)O

>  <Result Value>
43

$$$$
>  <Molecule>
O=P(O)(O)O[C@H]1[C@H](OP(=O)(O)O)[C@@H](OP(=O)(O)O)[C@H](OP(=O)(O)O)[C@@H](OP(=O)(O)O)[C@H]1OP(=O)(O)O

>  <Result Value>
7

$$$$

P. O=P(O)(O)O[C@@H]1[C@@H](OP(=O)(O)O)[C@H](OP(=O)(O)OP(=O)(O)O)[C@@H](OP(=O)(O)O)[C@H](OP(=O)(O)OP(=O)(O)O)[C@@H]1OP(=O)(O)O [InsP8, bis-diphosphoinositol tetrakisphosphate]
Q. O=P(O)(O)O[C@H]1[C@@H](OP(=O)(O)O)[C@H](OP(=O)(O)O)[C@@H](OP(=O)(O)OP(=O)(O)O)[C@H](OP(=O)(O)O)[C@H]1OP(=O)(O)O
### Prompt Identify the item whose IC50 is the smaller number: P or Q # reply format: chosen label
### Response Q
(Q: 5 µM, P: 32 µM)

====

The reader will find IC50 measurements below, all made with SIN1^PH (Homo sapiens).
Sequence (Q9BPZ7 358-522): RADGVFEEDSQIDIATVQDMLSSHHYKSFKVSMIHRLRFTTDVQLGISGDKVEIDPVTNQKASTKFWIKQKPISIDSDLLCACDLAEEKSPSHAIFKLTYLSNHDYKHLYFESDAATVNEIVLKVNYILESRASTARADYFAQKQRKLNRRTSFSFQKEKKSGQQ
Reply with just the number (in µM).

>  <Query Smiles>
O=P(O)(O)O[C@H]1[C@@H](OP(=O)(O)O)[C@H](OP(=O)(O)O)[C@@H](OP(=O)(O)OP(=O)(O)O)[C@H](OP(=O)(O)O)[C@H]1OP(=O)(O)O

>  <IC50 / µM>
3.7

$$$$

Next:
// assay SIN1^PH (Homo sapiens), entry O=P(O)(O)O[C@H]1[C@H](OP(=O)(O)O)[C@@H](OP(=O)(O)O)[C@H](OP(=O)(O)O)[C@@H](OP(=O)(O)O)[C@H]1OP(=O)(O)O , IC50 value = 6

====

Tested Target: Akt^PH (human recombinant AKT1) (Homo sapiens)
Sequence (P31749 5-108 limits assumed): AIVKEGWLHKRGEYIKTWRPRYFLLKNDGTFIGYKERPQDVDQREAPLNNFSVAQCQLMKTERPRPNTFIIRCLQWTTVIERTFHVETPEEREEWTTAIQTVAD
Procedure Details: SPR ligand competition: Akt binding to vesicular PtdIns
pIC50: −log10 of the molar value.
Outcome Measure: pIC50

>  <Query Smiles>
O=P(O)(O)O[C@H]1[C@H](OP(=O)(O)O)[C@@H](OP(=O)(O)O)[C@H](OP(=O)(O)O)[C@@H](OP(=O)(O)O)[C@H]1OP(=O)(O)O

>  <Tested Target>
Akt^PH (human recombinant AKT1) (Homo sapiens)

>  <Result Value>
4.85

$$$$

1. O=P(O)(O)O[C@@H]1[C@@H](OP(=O)(O)O)[C@@H](OP(=O)(O)O)[C@@H](OP(=O)(O)OP(=O)(O)O)[C@H](OP(=O)(O)O)[C@H]1OP(=O)(O)O
2. O=P(O)(O)O[C@H]1[C@@H](OP(=O)(O)O)[C@H](OP(=O)(O)O)[C@@H](OP(=O)(O)OP(=O)(O)O)[C@H](OP(=O)(O)O)[C@H]1OP(=O)(O)O
### Prompt Compare the recorded pIC50 of 1 and 2 ; state which is larger. # reply format: chosen label
### Response 2
(2: 5.15, 1: 4.35)
